// reported self-cleavage per item
B1: OR4K15 (parent)
chain: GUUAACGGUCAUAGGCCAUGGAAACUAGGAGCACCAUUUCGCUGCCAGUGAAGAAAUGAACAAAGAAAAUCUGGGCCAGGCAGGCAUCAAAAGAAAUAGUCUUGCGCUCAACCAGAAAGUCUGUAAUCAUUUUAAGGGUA

Variants of: B1
PROTOCOL_DESCRIPTION: self-cleavage, relative activity (ratio to wild type); higher = more cleavage; in vitro, sequencing; the parent is a self-cleaving ribozyme
Enter the number alone.

Reference set (4 entries):
>>> experimental_value("GUUAACGGUCAUAGGCCAUGGAAACUAGGAGCACCAUUCCGCUGCCAGUGAAGGAAUGAACAAAGAAAAUCUGGGCCAGGCAGGCAUCAAAAGAAAUAGUCUUGCGCUCAACCAGAAAGUCUGUAAUCAUUUUAAGGGUA [U39C A54G]")
0.69
>>> experimental_value("GUUAACGGUCAUAGGCCAUGGAAACUAGGAGCACCAUUUCGCUGCCAGUGAAGAAAUGAACAAAGAAAAUCUGGGCCAGGCAGGCAUCAAAAGAAAUAGUCUUGCGUUCAACCAGAAAGUCUGUAAUCAUUUUAAGGGUA [C107U]")
0.02
>>> experimental_value("GUUAACGGUCAUACGCCGUGGAAACUAGGAGCACCAUUUCGCUGCCAGUGAAGAAAUGAACAAAGAAAAUCUGGGCCAGGCAGGCAUCAAAAGAAAUAGUCUUGCGCUCAACCAGAAAGUCUGUAAUCAUUUUAAGGGUA [G14C A18G]")
1.59
>>> experimental_value("GUUAACGGUCAUAGGCCAUGGAAACUAGGAGCACCAUUUUGCUGCCAGUGAAGAAAUGAACAAAGAAAAUCUGGGCCAGGCAGGCAUCAAAAGAAAUAGUCUUGCGCUCAACCAGAAAGCCUGUAAUCAUUUUAAGGGUA [C40U U120C]")
1.32

Read the entry GUUAACGGUCAUAGGCCAUGGAAACUAGGAGCACCAUUUCGCUGCCAGUGAAGAAAUGAACAAAGAAAAUCUGGGCCGGGCAGGCAUCAAAAGAAAUAGUCUUGCGCUCAACCAGAAAGUCUGUAAUCAUUUUAAGGGAA [A78G U139A] and write its reported self-cleavage.
0.23

Output self-cleavage of GUUAACGGUCAUAGGCCAUGGAAACUAGGAGCACCAUUUCGCUGCCAGUGACGAAAUGAACAAAGAAAAUCUGGGCCAGGCAGGCAUCAAAAGAAAUAGUCUUGCGCUCAGCCAGAAAGUCUGUAAUCAUUUUAAGGGUA [A52C A111G]
0

Output measured self-cleavage for this item: AUUAACGGUCAUAGGCCAUGGAAACUAGGAGCACCAUUUCGCUGCCAGUGAAGAAAUGAACAAGGAAAAUCUGGGCCAGGCAGGCAUCAAAAGAAAUAGUCUUGCGCUCAACCAGAAAGUCUGUAAUCAUUUUAAGGGUA [G1A A64G]
2.27

Values compiled from the RNAGym collection of RNA variant scans (doi:10.7554/elife.90254).
